# System: A. niger
# procedure details: MIC by tube dilution method
# Format: cell-based
# settings: Aspergillus niger, 168 h, 7 days at 25 °C, read-out: MIC

>  <compound>
CC(=O)NS(=O)(=O)c1ccc(/N=C(/C)c2ccc(/N=N\c3c[nH]c4ccc([N+](=O)[O-])cc34)cc2)cc1

>  <assayed target>
A. niger

>  <MIC>
125 µg/mL

$$$$
>  <compound>
C/C(=N/c1ccc(Cl)cc1[N+](=O)[O-])c1ccc(/N=N\c2c[nH]c3ccccc23)cc1

>  <assayed target>
A. niger

>  <MIC>
62.5 µg/mL

$$$$
>  <compound>
C/C(=N/c1nc2ccccc2s1)c1ccc(/N=N\c2c[nH]c3ccc([N+](=O)[O-])cc23)cc1

>  <assayed target>
A. niger

>  <MIC>
125 µg/mL

$$$$
>  <compound>
C/C(=N/c1ccc(F)cc1)c1ccc(/N=N\c2c[nH]c3ccc([N+](=O)[O-])cc23)cc1

>  <assayed target>
A. niger

>  <MIC>
62.5 µg/mL

$$$$
>  <compound>
CCc1nnc(/N=C(/C)c2ccc(/N=N\c3c[nH]c4ccccc34)cc2)s1

>  <assayed target>
A. niger

>  <MIC>
62.5 µg/mL

$$$$
>  <compound>
C/C(=N/c1cc(Cl)ccc1Cl)c1ccc(/N=N\c2c[nH]c3ccc([N+](=O)[O-])cc23)cc1

>  <assayed target>
A. niger

>  <MIC>
62.5 µg/mL

$$$$
>  <compound>
C/C(=N/c1ccc(S(=O)(=O)Nc2ccccn2)cc1)c1ccc(/N=N\c2c[nH]c3ccccc23)cc1

>  <assayed target>
A. niger

>  <MIC>
125 µg/mL

$$$$
>  <compound>
C/C(=N/c1c(C)n(C)n(-c2ccccc2)c1=O)c1ccc(/N=N\c2c[nH]c3ccc([N+](=O)[O-])cc23)cc1

>  <assayed target>
A. niger

>  <MIC>
62.5 µg/mL

$$$$
>  <compound>
C/C(=N\Cc1ccco1)c1ccc(/N=N/c2c[nH]c3ccccc23)cc1

>  <assayed target>
A. niger

>  <MIC>
125 µg/mL

$$$$
>  <compound>
OC(Cn1cncn1)(Cn1cncn1)c1ccc(F)cc1F [FLU, fluconazole, reference compound]

>  <assayed target>
A. niger

>  <MIC>
31.2 µg/mL

$$$$
